# System: NCI-H23 lung
# PROTOCOL TEXT: NCI tumour cell line growth inhibition, 48 h
QUANTITY KIND: TGI

MOLECULE	STUDY TARGET	DATA VALUE
CC(O)C1(CNc2cc(Cl)nc(N)n2)CCCCC1 (configuration not stated)	NCI-H23 lung	> 100 µM
CSC(=NC#N)S/C=C/C(=O)c1ccccc1	NCI-H23 lung	58.8 µM
N#CC(C(=O)C(=O)Nc1ccccc1)c1ccccc1 (configuration not stated)	NCI-H23 lung	> 100 µM
Cc1nc2c(c(N3CCCc4ccccc43)n1)CCC2	NCI-H23 lung	> 100 µM
CCCCC(CCCCCC(CCCC)NCc1ccc2c(c1)OCO2)NCc1ccc2c(c1)OCO2 (configuration not stated)	NCI-H23 lung	2.71 µM
O=C1CSC(=S)N1c1ccco1	NCI-H23 lung	> 100 µM
NCCc1ccc(S(=O)(=O)F)cc1	NCI-H23 lung	> 100 µM
COc1ccc(/C=C2/CSCC3=C2NC(=S)NC3c2ccc(OC)c(OC)c2OC)c(OC)c1OC (configuration not stated)	NCI-H23 lung	43 µM
C1CSCCSCCCSC2CCCCC2SC1 (configuration not stated)	NCI-H23 lung	> 100 µM
Clc1cccc(-c2sc(-c3ccsc3)cc2Cc2ccsc2)c1	NCI-H23 lung	> 10 µM
CSc1nc(C)cc(Nc2ccc(O)c(CN3CCOCC3)c2)n1	NCI-H23 lung	> 100 µM
O=C1C(=O)N(c2ccc(Cl)cc2)C(=O)C(=O)C1c1nc2ccccc2o1	NCI-H23 lung	> 100 µM
CCCCN1CCCC[C@@H]1C(=O)N[C@H](C(=O)N(C)[C@H](C[C@@H](OC(C)=O)c1nc(C(=O)NC2CCC(C(=O)OC)CC2)cs1)C(C)C)C(C)C (some centres not stated)	NCI-H23 lung	> 25 µM
Cc1ccc(-c2nc3ccccc3c(=O)n2NCC2(O)OCC(O)C(O)C2O)cc1 (configuration not stated)	NCI-H23 lung	> 100 µM
COc1ccc2c3c(Nc4cccc(/C(C)=N\O)c4)[nH]c4ccccc4c-3c(N=O)c2c1	NCI-H23 lung	27.1 µM
C=CCNC(=S)N1CC(C)C(=O)Nc2cc(Cl)ccc21 (configuration not stated)	NCI-H23 lung	> 100 µM
COC(=O)N1CC(=O)C(C(=O)NC23CC4CC(CC(C4)C2)C3)C1 (configuration not stated)	NCI-H23 lung	> 100 µM
O=c1c2ccc(S(=O)(=O)c3ccc4c(=O)n5c6ccccc6nc5c5cccc3c45)c3cccc(c32)c2nc3ccccc3n12	NCI-H23 lung	> 100 µM
O=C(CCl)NCCNc1nccc(Nc2ccc(S(=O)(=O)Nc3ccccn3)cc2)n1	NCI-H23 lung	6.11 µM
CN(C)c1ccc(/C=C/c2ccc(S(N)(=O)=O)cc2)cc1	NCI-H23 lung	44 µM
COC(=O)c1cc(C(=O)OC)c(CC(=O)C(=O)NC2C3CC4CC(C3)CC2C4)nc1CC(=O)C(=O)NC1C2CC3CC(C2)CC1C3 (configuration not stated)	NCI-H23 lung	> 100 µM
O=C1/C(=C/c2ccccc2)CN(C(=O)C(Cl)Cl)C/C1=C\c1ccccc1	NCI-H23 lung	2.73 µM
